molecular target: phthalyl amidase (Xanthobacter agilis, UniProt P0C2Y0); construct: 42-aa signal peptide removed; test: Influence of effectors and organic solvents on enzyme activity; type: biochemical; details: agent at 1 mM final concentration
Sequence (P0C2Y0 2-453): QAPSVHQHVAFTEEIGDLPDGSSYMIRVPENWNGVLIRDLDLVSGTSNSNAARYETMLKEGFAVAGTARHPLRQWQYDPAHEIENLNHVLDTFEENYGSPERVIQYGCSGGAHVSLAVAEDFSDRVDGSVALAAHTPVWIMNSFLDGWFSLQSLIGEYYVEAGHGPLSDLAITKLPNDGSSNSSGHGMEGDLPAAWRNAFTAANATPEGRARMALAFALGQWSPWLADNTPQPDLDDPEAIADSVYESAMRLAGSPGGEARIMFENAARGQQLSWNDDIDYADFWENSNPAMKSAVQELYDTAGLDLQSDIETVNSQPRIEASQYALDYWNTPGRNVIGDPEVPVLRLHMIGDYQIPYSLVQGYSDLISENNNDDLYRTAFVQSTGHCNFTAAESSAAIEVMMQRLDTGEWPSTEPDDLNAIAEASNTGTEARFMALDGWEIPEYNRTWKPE
measured.metric: % of Control Activity (%)
Response body: numeric value in %, unit text excluded.

Enquiry: State measured % of Control Activity of the compound `[Cl-].[Cl-].[Zn+2]` with phthalyl amidase (Xanthobacter agilis, UniProt P0C2Y0).
Return: 100

Enquiry: State measured % of Control Activity of the compound O=C(O)c1cc[c]([Hg][OH])cc1 [p-HMB, parahydroxy mercuric benzoate] with phthalyl amidase (Xanthobacter agilis, UniProt P0C2Y0).
Return: 65

Enquiry: State measured % of Control Activity of the compound `[Cl][Ni][Cl]` with phthalyl amidase (Xanthobacter agilis, UniProt P0C2Y0).
Return: 94

Enquiry: State measured % of Control Activity of the compound `[Cl][Mn][Cl]` with phthalyl amidase (Xanthobacter agilis, UniProt P0C2Y0).
Return: 84

Enquiry: State measured % of Control Activity of the compound `[Cl][Cu][Cl]` with phthalyl amidase (Xanthobacter agilis, UniProt P0C2Y0).
Return: 36

Enquiry: State measured % of Control Activity of the compound `[Cl][Fe]([Cl])[Cl]` with phthalyl amidase (Xanthobacter agilis, UniProt P0C2Y0).
Return: 96

Enquiry: State measured % of Control Activity of the compound `[Cl-].[K+]` with phthalyl amidase (Xanthobacter agilis, UniProt P0C2Y0).
Return: 100

Enquiry: State measured % of Control Activity of the compound `[Ca+2].[Cl-].[Cl-]` with phthalyl amidase (Xanthobacter agilis, UniProt P0C2Y0).
Return: 89

---

biological target: phthalyl amidase (Xanthobacter agilis); construct: 42-aa signal peptide removed; assay: Substrate specificity: chemical structure requirements for enzyme activity; type: biochemical; details: Tables 10 and 11
measured.metric: suitability as substrate (in words)

INSERT INTO assay_data (compound, result) VALUES
  ('CCCCCCC(C(=O)O)n1cnc(NC(=O)c2ncccc2C(=O)O)c1 (stereo not drawn)', 'acceptable'),
  ('CCCCCCC(C(=O)O)n1cnc(NC(=O)c2cccc(O)c2C(=O)O)c1 (stereo not drawn)', 'acceptable');

---

Assign Relative Activity to each entry below.
target: phthalyl amidase (Xanthobacter agilis); construct: 42-aa signal peptide removed; experiment: Substrate specificity: chemical structure requirements for enzyme activity; format: biochemical; conditions: Table 11 aromatic ring substituted amides; XVII = 100.0; 2.5 μmol compound, 0.3 units enzyme, pH 8.0, 30° C.
Enter the number alone.

Enquiry: Consider the compound CCCCCCC(C(=O)O)n1cnc(NC(=O)c2cccc(O)c2)c1 (stereo not drawn) and give its recorded Relative Activity.
Return: 0

Enquiry: Consider the compound CCCCCCC(C(=O)O)n1cnc(NC(=O)c2cccc(C(=O)O)c2)c1 (stereo not drawn) and give its recorded Relative Activity.
Return: 0

Enquiry: Consider the compound CCCCCCC(C(=O)O)n1cnc(NC(=O)c2ccc(C(=O)O)cc2)c1 (stereo not drawn) and give its recorded Relative Activity.
Return: 0

Enquiry: Consider the compound CCCCCCC(C(=O)O)n1cnc(NC(=O)c2cc(O)cc(O)c2)c1 (stereo not drawn) and give its recorded Relative Activity.
Return: 0

Enquiry: Consider the compound CCCCCCC(C(=O)O)n1cnc(NC(=O)c2ccccc2-c2nn[nH]n2)c1 (stereo not drawn) and give its recorded Relative Activity.
Return: 0.2

Enquiry: Consider the compound CCCCCCC(C(=O)O)n1cnc(NC(=O)c2ccccc2O)c1 (stereo not drawn) and give its recorded Relative Activity.
Return: 0

Enquiry: Consider the compound CCCCCCC(C(=O)O)n1cnc(NC(=O)c2cccc(O)c2C(=O)O)c1 (stereo not drawn) and give its recorded Relative Activity.
Return: 1.3

Enquiry: Consider the compound CCCCCCC(C(=O)O)n1cnc(NC(=O)c2ccccc2)c1 (stereo not drawn) and give its recorded Relative Activity.
Return: 0

Enquiry: Consider the compound CCCCCCC(C(=O)O)n1cnc(NC(=O)c2ccccc2C(=O)O)c1 (stereo not drawn) and give its recorded Relative Activity.
Return: 100.0
